Taken from patent US20250019440A1.

- SUBJECT OF TEST: T1, Mouse CLDN18 A2.1 (mouse, UniProt P56857 10-264)
- T1 construct: On transfected HEK293-6E cells; also called Mouse CLDN18 2.1; mouse CLDN18.2 ortholog
- T1 chain: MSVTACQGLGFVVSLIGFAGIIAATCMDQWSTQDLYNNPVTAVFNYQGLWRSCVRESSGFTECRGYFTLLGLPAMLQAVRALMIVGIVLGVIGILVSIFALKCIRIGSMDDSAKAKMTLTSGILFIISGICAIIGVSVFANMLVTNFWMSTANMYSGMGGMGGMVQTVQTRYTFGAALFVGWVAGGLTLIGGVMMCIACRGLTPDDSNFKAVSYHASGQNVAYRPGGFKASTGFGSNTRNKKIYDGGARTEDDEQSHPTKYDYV
- TEST PROTOCOL: FACS on transfected HEK293-6E cells, 4 parameter logistic fit
Can you tell me Bmax for the items I'm about to list?
Give only the figure.

**Query** Entry v37407 (antibody, human IgG1, V domains shown, Humanized, recombinant human IgG1-based monoclonal antibody; also called H4-L4) VH: QVQLVESGGGLVQPGGSLRLSCSVSGIDLSSNPMIWVRQAPGKGLEYIGIIDTDGSTYYADWAKGRFTISKDSTTVYLQMNSLRAEDTAVYYCARRLHGSSNGYYDDLWGQGTLVTVSS VL: DGQMTQSPSSVSASVGDRVTITCQASQSIYSYLSWYQQKPGQRPKLLIYKASTLASGVPSRFSGSGSGTDFTLTISSVQPEDFATYYCQQGYTVTNVDKNTFGGGTKVEIK : reported Bmax = ?
**Result** 1540

**Query** Next binder up: v37409 (antibody, human IgG1, V domains shown, Humanized, recombinant human IgG1-based monoclonal antibody; also called H2-L4) VH: QVQLVESGGGLVQPGGSLRLSCSVSGIDLSSNPMIWVRQAPGKGLEYIGIIDTDGSTYYADWAKGRFTISKDSSKNTVYLQMNSLRAEDTAVYYCARRLHGSSNGYYDDLWGQGTLVTVSS VL: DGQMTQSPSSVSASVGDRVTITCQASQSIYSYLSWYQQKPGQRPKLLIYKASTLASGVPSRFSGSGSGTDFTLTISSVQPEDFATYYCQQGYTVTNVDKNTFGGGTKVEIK
**Result** 1530

**Query** Next binder up: v35777 (antibody, human IgG1, V domains shown, Rabbit variable regions on human IgG1 (constant region starts at alanine Kabat-114) and human C kappa (starts at arginine Kabat-108); also called parental rabbit chimeric; rabbit-human chimeric IgG1/kappa antibody construct) VH: QSLEESGGRLVTPGTPLTLTCTVSGIDLSSNPMIWVRQAPGKGLQYIGIIDTDGSTYYASWAKGRFTGSKTSTTVDLKITSPTTEDTATYFCARRLHGSSNGYYDDLWGQGTLVTISS VL: DGVMTQTPSSVSAAVGGTVTIKCQASQSIYSYLSWYQQKPGQRPKLLIYKASTLASGVPSRFKGSGSGTEFTLTISGVQCDDAATYYCQQGYTVTNVDKNTFGGGTEVVVK
**Result** 1640
